Values compiled from the supplement of paper PMC10981050.

Reported cell viability by item:
- Test system: OCI-AML2
- measurement.protocol: cell viability relative to vehicle control; higher = less cytotoxic;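 further: after 48 h exposure read by CellTiter-Glo luminescence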
- stated.conditions: 10 µM; SRSF2 genotype: wt/wt
quantity: cell viability (%)

>  <compound>
CNC(=O)c1cnn(-c2nc(N)c3ncn([C@@H]4O[C@H](CO)[C@@H](O)[C@H]4O)c3n2)c1

>  <quantity>
cell viability

>  <units.symbol>
%

>  <reading>
119

$$$$
>  <compound>
CN1C(N)=N[C@](C)(c2cc(NC(=O)c3ccc(F)cn3)ccc2F)CS1(=O)=O

>  <quantity>
cell viability

>  <units.symbol>
%

>  <reading>
107

$$$$
>  <compound>
Nc1nc2c(ncn2[C@@H]2O[C@H](CO)[C@@H](O)[C@H]2O)c(=O)[nH]1

>  <quantity>
cell viability

>  <units.symbol>
%

>  <reading>
97.5

$$$$
>  <compound>
O=C(O)C(=O)O.[NH-]C1CCCCC1[NH-].[Pt+2] (stereo not drawn) [Oxaliplatin (Eloxatin)]

>  <quantity>
cell viability

>  <units.symbol>
%

>  <reading>
62.9

$$$$
>  <compound>
CC(O)c1ccc(S(=O)(=O)NC(=O)NC2CCCCC2)cc1 (stereo not drawn) [Hydroxyhexamide]

>  <quantity>
cell viability

>  <units.symbol>
%

>  <reading>
106

$$$$
>  <compound>
CC(NC(=O)Cc1cc(F)cc(F)c1)C(=O)NC(C(=O)OC(C)(C)C)c1ccccc1 (stereo not drawn)

>  <quantity>
cell viability

>  <units.symbol>
%

>  <reading>
102

$$$$
>  <compound>
CC(=O)Nc1ccccc1 [Acetanilide (Antifebrin)]

>  <quantity>
cell viability

>  <units.symbol>
%

>  <reading>
102

$$$$
>  <compound>
CCC(=O)O[C@]1(C(=O)CCl)[C@@H](C)C[C@H]2[C@@H]3C[C@H](F)C4=CC(=O)C=C[C@]4(C)[C@@]3(F)[C@@H](O)C[C@@]21C [Halobetasol Propionate]

>  <quantity>
cell viability

>  <units.symbol>
%

>  <reading>
105

$$$$

###

Reported cell viability by item:
- Test system: K562
- measurement.protocol: cell viability relative to vehicle control; higher = less cytotoxic
- stated.conditions: 10 µM; SRSF2 genotype: SRSF2 wt/wt
Structures can show the parent of a compound that is named as a salt.

>  <compound>
OC(CC1c2ccccc2-c2cncn21)C1CCCCC1 (stereo not given)

>  <units.symbol>
%

>  <cell viability>
97.5

$$$$
>  <compound>
O=C(/C=C/C=C/c1ccc2c(c1)OCO2)N1CCCCC1 [Piperine (1-Piperoylpiperidine)]

>  <units.symbol>
%

>  <cell viability>
89.7

$$$$
>  <compound>
Nc1c(Br)cc(Br)cc1CN[C@H]1CC[C@H](O)CC1 [Ambroxol HCl]

>  <units.symbol>
%

>  <cell viability>
105

$$$$
>  <compound>
C[C@H](NCc1ccc(OCc2cccc(F)c2)cc1)C(N)=O

>  <units.symbol>
%

>  <cell viability>
99.9

$$$$
>  <compound>
Cc1n[nH]c2ncc(C(=O)N3CCC[C@H]3c3ccc(Cl)cc3)cc12

>  <units.symbol>
%

>  <cell viability>
99.8

$$$$

###

- Tested on: MOLM14
- measurement.protocol: cell viability relative to vehicle control; higher = less cytotoxic
- stated.conditions: 10 µM; SRSF2 genotype: SRSF2 wt/wt
Counter-ions that a name gives are not always drawn.

>  <molecule>
O=C(O)CNC(=O)c1ccccc1

>  <cell viability, %>
107

$$$$
>  <molecule>
Nc1c(CC(=O)O)cccc1C(=O)c1ccc(Br)cc1 [Bromfenac Sodium]

>  <cell viability, %>
102

$$$$
>  <molecule>
COc1cc(Cc2cnc(N)nc2N)cc(OC)c1OC

>  <cell viability, %>
104

$$$$
>  <molecule>
Cc1ccc(Cl)c(Nc2ccccc2C(=O)O)c1Cl [Meclofenamate sodium]

>  <cell viability, %>
98.5

$$$$
>  <molecule>
C[C@]12C=CC(=O)N[C@@H]1CC[C@@H]1[C@@H]2CC[C@]2(C)[C@@H](C(=O)Nc3cc(C(F)(F)F)ccc3C(F)(F)F)CC[C@@H]12 [Dutasteride]

>  <cell viability, %>
98.3

$$$$
>  <molecule>
C[C@@H]1O[C@@H](O[C@@H]2[C@@H](O)[C@H](OCCc3ccc(O)c(O)c3)O[C@H](COC(=O)/C=C/c3ccc(O)c(O)c3)[C@H]2O)[C@H](O)[C@H](O)[C@H]1O [Isoacteoside]

>  <cell viability, %>
101

$$$$
>  <molecule>
O=[N+]([O-])c1ccc(Nc2nc(N3CCOCC3)nc(N3CCOCC3)n2)cc1

>  <cell viability, %>
99.8

$$$$
>  <molecule>
COc1cc(CCC(C)=O)ccc1O

>  <cell viability, %>
101

$$$$
>  <molecule>
CNc1cc(-c2cccc(Cl)c2Cl)nc(N)n1

>  <cell viability, %>
2.78

$$$$
>  <molecule>
CC(C)(C)C(=O)N1N=CC[C@H]1c1ccccc1

>  <cell viability, %>
103

$$$$
>  <molecule>
N=C1NC(=O)/C(=C/c2ccc(O)cc2)S1

>  <cell viability, %>
85.1

$$$$
>  <molecule>
C[C@H]1[C@H](C)CC[C@]2(C(=O)O)CC[C@]3(C)C(=CC[C@@H]4[C@@]5(C)C[C@@H](O)[C@H](O)C(C)(C)[C@@H]5CC[C@]43C)[C@H]12

>  <cell viability, %>
96.1

$$$$
>  <molecule>
Fc1ccc2[nH]ccc2c1-c1nc(N2CCOCC2)c2sc(CN3CCN(CC4CC4)CC3)cc2n1

>  <cell viability, %>
45.1

$$$$
>  <molecule>
Oc1ccc2ccccc2c1N=Nc1ccc(N=Nc2ccccc2)cc1

>  <cell viability, %>
85.3

$$$$
>  <molecule>
C=CC(=O)N1CC[C@@H](Oc2nc(Nc3ccc(N4CCC(N5CCN(C)CC5)CC4)cc3)c(C(N)=O)nc2CC)C1

>  <cell viability, %>
10.5

$$$$
>  <molecule>
CN(C)CCc1c[nH]c2ccc(Cn3cncn3)cc12 [Rizatriptan Benzoate (Maxalt)]

>  <cell viability, %>
85.6

$$$$
>  <molecule>
CCC(C)n1ncn(-c2ccc(N3CCN(c4ccc(OCC5COC(Cn6cncn6)(c6ccc(Cl)cc6Cl)O5)cc4)CC3)cc2)c1=O (stereo unspecified) [Itraconazole (Sporanox)]

>  <cell viability, %>
96.7

$$$$
>  <molecule>
Nc1ncnc2c1c(I)cn2C1OC(CO)C(O)C1O (stereo unspecified)

>  <cell viability, %>
0.42

$$$$
>  <molecule>
COc1ccccc1OCC(O)CN1CCN(CC(=O)Nc2c(C)cccc2C)CC1 (stereo unspecified) [Ranolazine dihydrochloride]

>  <cell viability, %>
100

$$$$
>  <molecule>
Cc1ccc(Cl)cc1N(CC(=O)Nc1c(F)cccc1F)S(C)(=O)=O

>  <cell viability, %>
105

$$$$
>  <molecule>
CC1(C)O[C@@H]2C[C@H]3[C@@H]4C[C@H](F)C5=CC(=O)C=C[C@]5(C)[C@@]4(F)[C@@H](O)C[C@]3(C)[C@]2(C(=O)CO)O1 [Fluocinolone acetonide (Flucort-N)]

>  <cell viability, %>
91.6

$$$$
>  <molecule>
Nc1cc[nH]c(=O)n1

>  <cell viability, %>
104

$$$$
>  <molecule>
CC(=O)OCC(=O)NCCCOc1cccc(CN2CCCCC2)c1 [Roxatidine acetate HCl]

>  <cell viability, %>
101

$$$$
>  <molecule>
O=C(O)C(Cc1c[nH]c2ccccc12)N1C(=O)c2ccccc2C1=O (stereo unspecified)

>  <cell viability, %>
99.3

$$$$
>  <molecule>
Nc1ccn([C@H]2CC[C@@H](CO)O2)c(=O)n1

>  <cell viability, %>
107

$$$$
>  <molecule>
CC[C@H]1OC(=O)[C@H](C)[C@@H](O[C@H]2C[C@@](C)(OC)[C@@H](O)[C@H](C)O2)[C@H](C)[C@@H](O[C@@H]2O[C@H](C)C[C@H](N(C)C)[C@H]2O)[C@](C)(O)C[C@@H](C)C(=O)[C@H](C)[C@@H](O)[C@]1(C)O [Erythromycin]

>  <cell viability, %>
99.6

$$$$
>  <molecule>
COC(=O)N[C@H](C(=O)N1CCC[C@H]1c1nc(-c2ccc3c(c2)O[C@@H](c2ccccc2)n2c-3cc3cc(-c4c[nH]c([C@@H]5CCCN5C(=O)[C@@H](NC(=O)OC)C(C)C)n4)ccc32)c[nH]1)C(C)C

>  <cell viability, %>
87.8

$$$$
>  <molecule>
CN(C)c1nc(N(C)C)nc(N(C)C)n1

>  <cell viability, %>
98.5

$$$$
>  <molecule>
COc1cccc(-c2cc(NCc3ccc4c(c3)OCO4)nc(N)n2)c1

>  <cell viability, %>
4.03

$$$$
>  <molecule>
CC(OC(=O)OC1CCCCC1)OC(=O)C1=C(CSc2nnnn2CCN(C)C)CS[C@@H]2[C@H](NC(=O)Cc3csc(N)n3)C(=O)N12 (stereo partly specified) [Cefotiam Hexetil Hydrochloride]

>  <cell viability, %>
94.3

$$$$
>  <molecule>
O=C(c1ccc(/C=C/c2n[nH]c3ccccc23)cc1)N1CCNCC1

>  <cell viability, %>
7.69

$$$$
